target: PRMT5-MEP50 enzyme (Homo sapiens); construct: One virus expresses full length human PRMT5 with Flag-tag at N-terminus; test: In vitro assay (Assay 1): PRMT5-MEP50 high throughput mass spectrometer assay, inhibition of SAH formation; assay type: biochemical; details: individual measurements shown, read-out: pIC50 Assay 1 (converted)
Sequence (O14744 whole entry): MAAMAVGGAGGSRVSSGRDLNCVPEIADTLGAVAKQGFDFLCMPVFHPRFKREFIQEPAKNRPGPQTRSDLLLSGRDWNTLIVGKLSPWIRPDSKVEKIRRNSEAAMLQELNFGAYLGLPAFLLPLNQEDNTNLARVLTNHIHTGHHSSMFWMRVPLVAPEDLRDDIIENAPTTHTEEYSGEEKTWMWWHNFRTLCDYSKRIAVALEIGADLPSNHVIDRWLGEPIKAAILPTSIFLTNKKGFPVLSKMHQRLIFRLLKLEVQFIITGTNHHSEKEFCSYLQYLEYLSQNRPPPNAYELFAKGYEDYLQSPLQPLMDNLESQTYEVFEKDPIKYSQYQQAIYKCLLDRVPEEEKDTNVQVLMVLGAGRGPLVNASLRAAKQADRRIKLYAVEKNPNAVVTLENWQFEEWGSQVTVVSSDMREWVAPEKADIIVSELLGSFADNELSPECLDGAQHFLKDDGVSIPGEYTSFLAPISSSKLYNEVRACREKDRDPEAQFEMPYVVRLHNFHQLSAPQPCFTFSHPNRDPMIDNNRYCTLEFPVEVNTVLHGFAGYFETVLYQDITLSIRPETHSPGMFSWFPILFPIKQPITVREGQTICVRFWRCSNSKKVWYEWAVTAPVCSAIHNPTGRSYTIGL
Sequence (Q9BQA1 whole entry partner): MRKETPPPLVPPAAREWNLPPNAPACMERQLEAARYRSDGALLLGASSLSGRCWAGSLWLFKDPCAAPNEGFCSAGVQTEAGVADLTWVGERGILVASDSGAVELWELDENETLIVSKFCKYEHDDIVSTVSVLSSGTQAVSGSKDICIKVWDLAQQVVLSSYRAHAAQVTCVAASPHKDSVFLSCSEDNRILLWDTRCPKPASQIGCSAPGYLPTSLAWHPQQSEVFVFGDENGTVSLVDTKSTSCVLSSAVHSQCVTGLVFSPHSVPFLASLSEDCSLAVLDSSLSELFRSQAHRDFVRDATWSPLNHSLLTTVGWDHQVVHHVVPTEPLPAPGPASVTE
So basically: is IC50 under 500 nM? Then true (1). Not under? Then false (0).

Compound	Class Label
COCCN1CCC2(CCCN2C[C@H]2O[C@@H](n3ccc4c(N)ncnc43)[C@H](O)[C@@H]2O)CC1	true (1)
CN(C)CC[C@@H]1CC(F)(F)CN1C(=O)[C@H]1O[C@@H](c2ccc3c(N)ncnn23)[C@H](O)[C@@H]1O	false (0)
Nc1ncnn2c([C@@H]3O[C@H](CN4C(C(F)(F)F)CCC45CCNCC5)[C@@H](O)[C@H]3O)ccc12 (stereo partly shown)	false (0)
CN1CCC2(CCCN2C[C@H]2O[C@@H](n3cc(Br)c4c(N)ncnc43)[C@H](O)[C@@H]2O)CC1	true (1)
Cc1nc(N)c2ccn([C@@H]3O[C@H](CN4CCCC45CCNCC5)[C@@H](O)[C@H]3O)c2n1	true (1)

Regarding Nc1ncnc2c1ncn2[C@@H]1O[C@H](CN2CCC3(CCCN3)C2)[C@@H](O)[C@H]1O (stereo partly shown) , kindly confirm whether its IC50 is beneath 500 nM.
false (0)

Data origin: patent US10898504B2
